- EXPERIMENTAL_DETAILS: PK studies of ITE in male nude mice (single dosing)
- Type: in vivo
- MEASUREMENT_CONTEXT: male, nude, mouse, plasma, ip; 10 mg/kg b.w. i.p. in DMSO
MEASURED_PROPERTY: AUC

COC(=O)c1csc(C(=O)c2c[nH]c3ccccc23)n1; 197 ng·h/mL

====

- EXPERIMENTAL_DETAILS: PK studies of ITE in male nude mice (single dosing)
- Format: in vivo
- MEASUREMENT_CONTEXT: male, nude, mouse, plasma, po; 80 mg/kg b.w. p.o. in Labrasol:PEG 400 (2:8, v/v)
- Procedure: Male nude mice were also used in PK (pharmacokinetic) studies. For i.v. injection, ITE at 1 mg/kg b.w. was administered with DMSO as vehicle via tail vein. For i.p. Injection, ITE at 10, 40, and 80 mg/kg b.w. was delivered with DMSO via lower left abdominal quadrant. […] ITE was quantified by a standard curve generated every time by a series of known quantities of ITE running through both the extraction/precipitation process after mixing with mouse plasma and the LC-MS/MS system. […]
MEASURED_PROPERTY: AUC

COC(=O)c1csc(C(=O)c2c[nH]c3ccccc23)n1; 97 ng·h/mL

====

- EXPERIMENTAL_DETAILS: PK studies of ITE in male nude mice (single dosing)
- Format: in vivo
- MEASUREMENT_CONTEXT: male, nude, mouse, plasma, ip; 40 mg/kg b.w. i.p. in DMSO
MEASURED_PROPERTY: half-life

COC(=O)c1csc(C(=O)c2c[nH]c3ccccc23)n1 [ITE]; 1.61 h

====

- EXPERIMENTAL_DETAILS: PK studies of ITE in male nude mice (single dosing)
- Type: in vivo
- MEASUREMENT_CONTEXT: male, nude, mouse, plasma, ip; 80 mg/kg b.w. i.p. in DMSO
MEASURED_PROPERTY: half-life

COC(=O)c1csc(C(=O)c2c[nH]c3ccccc23)n1 [ITE]; 5.17 h

====

- EXPERIMENTAL_DETAILS: PK studies of ITE in male nude mice (single dosing)
- Assay type: in vivo
- MEASUREMENT_CONTEXT: male, nude, mouse, plasma, ip; 80 mg/kg b.w. i.p. in DMSO
MEASURED_PROPERTY: AUC

COC(=O)c1csc(C(=O)c2c[nH]c3ccccc23)n1; 499 ng·h/mL

====

- EXPERIMENTAL_DETAILS: PK studies of ITE in male nude mice (single dosing)
- Type: in vivo
- MEASUREMENT_CONTEXT: male, nude, mouse, plasma, ip; 40 mg/kg b.w. i.p. in DMSO
MEASURED_PROPERTY: AUC (ng·h/mL)

COC(=O)c1csc(C(=O)c2c[nH]c3ccccc23)n1 [ITE]; 332

====

- EXPERIMENTAL_DETAILS: PK studies of ITE in male nude mice (single dosing)
- Type: in vivo
- MEASUREMENT_CONTEXT: male, nude, mouse, plasma, po; 40 mg/kg b.w. p.o. in Labrasol:PEG 400 (2:8, v/v)
- Description: Male nude mice were also used in PK (pharmacokinetic) studies. For i.v. injection, ITE at 1 mg/kg b.w. was administered with DMSO as vehicle via tail vein. For i.p. Injection, ITE at 10, 40, and 80 mg/kg b.w. was delivered with DMSO via lower left abdominal quadrant. […] ITE was quantified by a standard curve generated every time by a series of known quantities of ITE running through both the extraction/precipitation process after mixing with mouse plasma and the LC-MS/MS system. […]
MEASURED_PROPERTY: AUC (ng·h/mL)

COC(=O)c1csc(C(=O)c2c[nH]c3ccccc23)n1; 107
